- study.system: CB1 (Homo sapiens, UniProt P21554)
- Construct: expressed in transfected cells; host or cells: CHO-K1 (membranes)
- Sequence (P21554 whole entry): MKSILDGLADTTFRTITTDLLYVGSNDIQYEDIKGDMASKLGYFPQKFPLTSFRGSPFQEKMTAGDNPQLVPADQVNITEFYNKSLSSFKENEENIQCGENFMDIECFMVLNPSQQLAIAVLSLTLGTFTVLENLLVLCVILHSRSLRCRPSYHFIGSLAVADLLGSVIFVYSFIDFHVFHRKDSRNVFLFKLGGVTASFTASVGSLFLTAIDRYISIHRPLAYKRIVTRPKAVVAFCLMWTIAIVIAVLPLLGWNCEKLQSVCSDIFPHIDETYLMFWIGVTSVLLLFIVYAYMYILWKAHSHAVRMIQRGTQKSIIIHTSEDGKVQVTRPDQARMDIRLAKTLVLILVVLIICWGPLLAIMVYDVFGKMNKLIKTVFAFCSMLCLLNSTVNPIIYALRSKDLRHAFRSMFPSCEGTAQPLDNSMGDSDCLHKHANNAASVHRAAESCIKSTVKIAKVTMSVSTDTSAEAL
- experiment: Radioligand displacement of [3H]SR141716 at CB1
- Format: binding
- details: Table 3; radioligand [3H]SR141716; read-out: Ki(μM) CB1 SR141716
recorded.endpoint: Ki (µM)
Please give a number only; it is taken to be in µM.

Let me know recorded Ki for Cc1c(C(=O)NCC2CCC(CNS(C)(=O)=O)CC2)nn(-c2ccc(Cl)cc2Cl)c1-c1ccc(Cl)cc1 (mixture of isomers) , thanks.
0.008

---

- study.system: CB2 (Homo sapiens)
- Construct: expressed in transfected cells; host or cells: CHO-K1 (membranes)
- Sequence (P34972 whole entry): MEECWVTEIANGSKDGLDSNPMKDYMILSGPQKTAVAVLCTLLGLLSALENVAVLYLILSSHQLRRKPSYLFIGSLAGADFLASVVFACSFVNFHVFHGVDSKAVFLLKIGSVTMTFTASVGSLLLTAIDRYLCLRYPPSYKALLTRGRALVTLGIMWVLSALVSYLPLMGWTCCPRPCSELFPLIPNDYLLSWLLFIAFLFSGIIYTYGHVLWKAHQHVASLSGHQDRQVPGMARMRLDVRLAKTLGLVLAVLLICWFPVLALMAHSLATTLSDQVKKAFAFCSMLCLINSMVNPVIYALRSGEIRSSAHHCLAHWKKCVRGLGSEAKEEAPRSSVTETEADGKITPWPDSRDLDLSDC
- experiment: Displacement of [3H]CP55940 in membranes of CHO-K1 cells over-expressing CB2
- Type: binding
- details: Table 4; read-out: Ki (nM) v. [3H] CP55940 at CB2
recorded.endpoint: Ki

# compound, recorded.endpoint, recorded.value
records = [
    ("Cc1c(C(=O)N2CCC(C(N)=O)(c3ccccc3)CC2)nn(-c2ccc(Cl)cc2Cl)c1-c1ccc(Br)cc1 [Br, phenyl, CONH2]", "Ki", "3280 nM"),
]

Let me know recorded Ki for CC(=O)NC1(c2ccccc2)CCN(C(=O)c2nn(-c3ccc(Cl)cc3Cl)c(-c3ccc(Cl)cc3)c2C)CC1 [Cl, phenyl, NHC(O)CH3] , thanks.
214 nM

Let me know recorded Ki for Cc1c(C(=O)N2CCC(NC(=O)NC(C)C)(c3ccccc3)CC2)nn(-c2ccc(Cl)cc2Cl)c1-c1ccc(Cl)cc1 [Cl, phenyl, NHC(O)NHCH(CH3)2] , thanks.
4910 nM

Let me know recorded Ki for Cc1c(C(=O)N2CCC(N)(c3ccccc3)CC2)nn(-c2ccc(Cl)cc2Cl)c1-c1ccc(Cl)cc1 [Cl, phenyl, NH2] , thanks.
1130 nM

Let me know recorded Ki for CCCCCCNC(=O)NC1(c2ccccc2)CCN(C(=O)c2nn(-c3ccc(Cl)cc3Cl)c(-c3ccc(Cl)cc3)c2C)CC1 [Cl, phenyl, NHC(O)NH(C6H13)] , thanks.
2410 nM

Let me know recorded Ki for Cc1c(C(=O)N2CCC(O)(c3ccccc3)CC2)nn(-c2ccc(Cl)cc2Cl)c1-c1ccc(N(C)C)cc1 [N(CH3)2, phenyl, OH] , thanks.
400 nM
